- Tested on: RPMI-8226
- assay_protocol: NCI tumour cell line growth inhibition, 48 h
The source made the active and inactive calls. No stated cut-off is given here; in the data, active = GI50 up to about 1.1 µM and inactive = higher. Non-standard residues stand in square brackets, D forms with d. Residues, ends and D or L forms follow the SMILES beside them. ξ: configuration not given here. *: point of attachment. ξF = NC(Cc1ccccc1)C(=O)O; Cbz = O=C(OCc1ccccc1)*
Assign a class; possible classes are TRUE (active), FALSE (inactive)

Please share the test call associated with COC(=O)C(C#CCCCCC#CC(NC(=O)OCc1ccccc1)(C(=O)OC)C(F)(F)F)(NC(=O)OCc1ccccc1)C(F)(F)F (stereo not given) .
FALSE

Please share the test call associated with `N#Cc1nc(CCCCCN2C(=O)c3ccccc3C2=O)oc1N` .
FALSE

Please share the test call associated with `CSC1=C(SC)C(=O)c2cn(C)c(=O)cc2C1=O` .
FALSE

Please share the test call associated with `COc1ccc(Cc2c(=O)[nH]nc3ccccc23)cc1` .
FALSE

Please share the test call associated with CCCCOP(=O)(OCCCC)C(NS(=O)(=O)c1ccccc1)(C(=O)OCC)C(F)(F)F (stereo not given) .
FALSE

Please share the test call associated with CCOC(=O)CNC(=O)C(Cc1ccccc1)NC(=O)OCc1ccccc1 (stereo not given) (Cbz-[ξF]-Gly-OEt) .
FALSE

Please share the test call associated with `CC[C@]12C=CCN3CC[C@@]4(c5ccc(OC)cc5N(C)[C@H]4[C@@](O)(C(=O)OC)[C@@H]1OC(C)=O)[C@@H]32` .
FALSE

Please share the test call associated with Cc1ccc(S(=O)(=O)NC(CCC(=O)NN)C(=O)NN)cc1 (stereo not given) .
FALSE

Please share the test call associated with `CCN(CC)CCCNc1c2cc(OC)ccc2nc2cccc([N+](=O)[O-])c12` .
TRUE

Please share the test call associated with `C[Si](C)(C)C1(Sc2ccccc2)SCCCS1` .
FALSE
